# System: Septoria tritici
# procedure-text: In vivo preventive test on Septoria tritici (leaf spot on wheat)
# cond: 500 ppm; wheat plants sprayed 24 hours before contamination; grading 21 to 28 days after contamination vs control plants
Outcome: YES for % of efficacy (protection) of at least 80%; NO for anything lower.

Consider the following illustrative entries.
compound="CC(C)NC(=O)C1ON=C(c2ccc3ncc(Br)cc3c2)C1C (racemic)" experimental_system="Septoria tritici" category_label=YES
compound="COC1(C(=O)NCC2COC(C)(C)O2)CC(c2ccc3ncc(I)cc3c2)=NO1 (centres unmarked)" experimental_system="Septoria tritici" category_label=YES

Quick check: does C=CC1(C(=O)NCc2cn(CC)nc2C)CC(c2ccc3ncc(Br)cc3c2)=NO1 (centres unmarked) have % of efficacy (protection) greater than or equal to 80%?
YES

Quick check: does C#Cc1cnc2c(Cl)cc(C3=NOC(C)(C(=O)NC4CCC4)C3)cc2c1 (centres unmarked) have % of efficacy (protection) greater than or equal to 80%?
YES

Quick check: does CC1(C(=O)NC2CCOCC2)CC(c2ccc3ncc(Br)cc3c2)=NO1 (centres unmarked) have % of efficacy (protection) greater than or equal to 80%?
YES

Quick check: does C#Cc1cnc2ccc(C3=NOC(OC)(C(=O)NC(C)C)C3)cc2c1 (centres unmarked) have % of efficacy (protection) greater than or equal to 80%?
YES

Quick check: does C#Cc1cnc2ccc(C3=NOC(C)(C(=O)NC(C)C(F)(F)F)C3)cc2c1 (centres unmarked) have % of efficacy (protection) greater than or equal to 80%?
YES

Quick check: does C#Cc1cnc2ccc(C3=NOC(OC)(C(=O)NC(C)(C)c4cc(C)ccn4)C3)cc2c1 (centres unmarked) have % of efficacy (protection) greater than or equal to 80%?
YES

Quick check: does C#Cc1cnc2ccc(C3=NOC(C)(C(=O)NCc4cnn(-c5ccccc5)c4)C3)cc2c1 (centres unmarked) have % of efficacy (protection) greater than or equal to 80%?
NO

Quick check: does CC(C)NC(=O)C1(C)CC(c2ccc3ncc(Cl)cc3c2)=NO1 (centres unmarked) have % of efficacy (protection) greater than or equal to 80%?
YES

Quick check: does CCOCCCNC(=O)C1(OC)CC(c2ccc3ncc(I)cc3c2)=NO1 (racemic) have % of efficacy (protection) greater than or equal to 80%?
YES

Quick check: does Cn1ccc(NC(=O)C2(C(F)(F)F)CC(c3ccc4ncc(Br)cc4c3)=NO2)c1 (centres unmarked) have % of efficacy (protection) greater than or equal to 80%?
NO

Quick check: does C#Cc1cc2cc(C3=NOC(C)(C(=O)NC(C)C)C3)ccc2nc1Cl (centres unmarked) have % of efficacy (protection) greater than or equal to 80%?
NO

Quick check: does CC(NC(=O)C1(C)CC(c2ccc3ncc(Br)cc3c2)=NO1)C1=NOCC1 (centres unmarked) have % of efficacy (protection) greater than or equal to 80%?
YES

====

# Assay type: physicochemical
# cond: method [a]: HPLC/LC-MS on reversed phase at pH 2.7, 0.1% formic acid in water / acetonitrile, linear gradient 10% to 95% acetonitrile
experimental-readout: log P

compound="Cc1cnc(CNC(=O)C2(C)CC(c3ccc4ncc(Br)cc4c3)=NO2)cn1 (centres unmarked) [compound 85]" experimental_readout="log P" measured_result=2.2^[a]
compound="CCn1cc(CNC(=O)C2(CCl)CC(c3ccc4ncc(Br)cc4c3)=NO2)c(C)n1 (centres unmarked) [compound 138]" experimental_readout="log P" measured_result=2.56^[a]
compound="CCn1cc(CNC(=O)C2(C)CC(c3ccc4ncc(C#C[Si](C)(C)C)cc4c3)=NO2)c(C)n1 (centres unmarked) [compound 149]" experimental_readout="log P" measured_result=3.79^[a]

Count: 5. Required value per item: log P.
1. CCn1cc(CNC(=O)C2(C)CC(c3ccc4ncc(OC)cc4c3)=NO2)c(C)n1 (centres unmarked) [compound 135]
2. C#Cc1cnc2ccc(C3=NOC(C)(C(=O)NCc4ccco4)C3)cc2c1 (centres unmarked) [compound 164]
3. CC1(C(=O)NCC2(c3ccc(F)cc3)CC2)CC(c2ccc3ncc(Br)cc3c2)=NO1 (centres unmarked) [compound 221]
4. CCn1cc(CNC(=O)C2(C)CC(c3ccc4ncc(-c5ccccc5)cc4c3)=NO2)c(C)n1 (centres unmarked) [compound 140]
5. C#Cc1cnc2ccc(C3=NOC(C)(C(=O)NCCc4ccc(Cl)cc4)C3)cc2c1 (centres unmarked) [compound 210]

1. 1.83^[a]
2. 2.51^[a]
3. 3.81^[a]
4. 2.63^[a]
5. 3.25^[a]
